system: Staphylococcus aureus; assay: Antibacterial activity against Staphylococcus aureus ATCC6538 assessed as bacterial growth inhibition incubated for 16 hrs by broth microdilution assay; format: functional
So I've got a bunch of molecules here, and I need their MIC values.
Give bare numbers, in µM.

The examples below pair each entry with its known result.
>  <Molecule>
CCC/C=C\c1ccccc1/C=C/C(=O)N[C@@H](Cc1ccc(O)cc1)C(=O)OC

>  <MIC / µM>
12.5

$$$$
>  <Molecule>
COC(=O)[C@H](Cc1ccc(O)cc1)NC(=O)/C=C/c1ccccc1OC

>  <MIC / µM>
100

$$$$
>  <Molecule>
CCC/C=C\c1ccccc1/C=C/C(=O)N[C@H](Cc1ccc(O)cc1)C(=O)OC

>  <MIC / µM>
12.5

$$$$

Would you be so kind as to report MIC for each listed record?
1. CC1(C)S[C@@H]2[C@H](NC(=O)Cc3ccccc3)C(=O)N2[C@H]1C(=O)O [PENICILLIN G]
2. COC(=O)[C@H](Cc1ccc(O)cc1)NC(=O)/C=C/c1ccccc1C(F)(F)F
3. COC(=O)[C@H](Cc1ccc(O)cc1)NC(=O)/C=C/c1ccccc1Br

RESULT:
0.05
100
100
